Assay: NCI Yeast Anticancer Drug Screen. Data for the cln2 rad14 strain (AID 165)
Details: S. cerevisiae cln2 rad14 strain, at 50.0 µM, stronger effect = higher value
Compounds without any hit were thinned out: in the full panel of roughly 79,000, 15% have a hit.
Note to self: class = bucket of growth inhibition, per lowest: < 20%; middle: ≥ 20% and < 60%; highest: ≥ 60%

# example entries with known answers
{"columns": ["compound", "class name"],
 "data": [
  ["CCCCC(CC)C(=O)Oc1ccc(C(=O)c2ccccc2)c(O)c1 (centres undefined)", "highest"],
  ["CCc1nc(N)nc(N)c1-c1ccc(NCCCCCCN)c([N+](=O)[O-])c1", "highest"]
]}

Task: Band for COC(=O)/C=C1/OC(c2ccc(Br)cc2)=C(Br)C1=O ?
Result: middle

Task: # iterate: Cc1cc(Cl)nc2nc(Cl)c(N)cc12
Result: middle

Task: # iterate: Nc1nc(N)c2c(n1)CCC(S(=O)(=O)c1ccc3ccccc3c1)C2 (centres undefined)
Result: lowest

Task: # iterate: O=C(NC(=S)Nc1ccccn1)c1ccccc1
Result: lowest

Task: # iterate: CCN(CC)CC(O)c1cc(-c2ccc(Cl)cc2)nc2c(-c3ccccc3)cccc12 (centres undefined)
Result: lowest

Task: # iterate: Cc1nc2c(ncn2CCO)c(=O)[nH]1
Result: lowest

Task: # iterate: Cc1cccc(/C=N\NC(=S)N2CCCCC2)n1
Result: highest
